# credit: patent US20040091855A1

Recorded Antiviral activity against HIV IIIB, IC50 (MAGI/cMAGI infectivity assay), one value per entry.
target: HIV-1 gp41 of strain HIV IIIB (on infectious virus) (HIV-1 strain HIVIIIB), P04578; test: cell-based or functional assay
observation_type: Antiviral activity against HIV IIIB, IC50 (MAGI/cMAGI infectivity assay) (µg/mL)

binder: QARQLVSGLVQQQNNILRALEATQHAVQALVWGVKQLQARVLALERYIK (modifications not checked) [synthetic peptide having the amino acid sequence of SEQ ID NO:35]
value_unit: µg/mL
censor_symbol: =
result_value: 0.14

binder: QARQLVSGLVQQQNNILRALEATQHLVQLLVWGVKQLQARVLALERYIK (modifications not checked) [peptide having the amino acid sequence of SEQ ID NO:41]
value_unit: µg/mL
censor_symbol: =
result_value: 3.89

binder: QARQLVSGLVQQQNNILRALEATQHAVQALVWGVRQLQARVLALERYIK (modifications not checked) [synthetic peptide having the amino acid sequence of SEQ ID NO:37]
value_unit: µg/mL
censor_symbol: <
result_value: 0.78

binder: synthetic peptide having the amino acid sequence of SEQ ID NO:38 (modifications not checked) peptide: QARQLLSGIVQQQNNLLRAIEATQHAVQALVWGVKQLQARVLALERYIKDQ
value_unit: µg/mL
censor_symbol: =
result_value: 0.18

binder: synthetic peptide having the amino acid sequence of SEQ ID NO:39 (modifications not checked) peptide: QARQLVSGLVQQQNNILRALEAQQHALQATVWGIKQLQARVLALERYIKDQ
value_unit: µg/mL
censor_symbol: =
result_value: 0.26
